biological target: Recombinant human Tyro3 (455-end) (Homo sapiens, UniProt Q06418); construct: GST (N); experiment: Kinase enzymatic activity assay ([33P]-ATP phosphate transfer), Tyro3; conditions: inhibitory activity on Tyro3; class symbols
Sequence (Q06418 455-890 limits assumed): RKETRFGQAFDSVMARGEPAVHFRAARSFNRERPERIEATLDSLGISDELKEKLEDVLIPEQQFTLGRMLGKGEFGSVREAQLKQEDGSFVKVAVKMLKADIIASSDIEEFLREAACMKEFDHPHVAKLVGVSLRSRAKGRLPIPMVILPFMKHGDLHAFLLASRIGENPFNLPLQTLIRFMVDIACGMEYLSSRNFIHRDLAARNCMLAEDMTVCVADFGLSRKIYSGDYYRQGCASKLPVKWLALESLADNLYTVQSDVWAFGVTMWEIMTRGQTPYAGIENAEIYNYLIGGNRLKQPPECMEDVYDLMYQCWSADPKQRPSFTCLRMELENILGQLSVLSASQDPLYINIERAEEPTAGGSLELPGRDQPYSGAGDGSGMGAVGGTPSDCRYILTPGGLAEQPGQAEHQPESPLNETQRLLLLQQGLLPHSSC
Recorded IC50, one value per entry.

Guide cases for IC50, answers given:
smiles-text	study-system	IC50
Nc1ncc(-c2cn[nH]c2)cc1-c1nnc(-c2ccccc2)o1	Recombinant human Tyro3 (455-end) (Homo sapiens, UniProt Q06418)	< 500 nM
CC(C)(C)c1ccc(-c2nnc(-c3cc(-c4cnn(C5CCNCC5)c4)cnc3N)o2)cc1	Recombinant human Tyro3 (455-end) (Homo sapiens, UniProt Q06418)	< 500 nM

Sample Nc1ncc(-c2cnn(C3CCNCC3)c2)cc1-c1nnc(-c2c(Cl)cccc2Cl)o1 , system: Recombinant human Tyro3 (455-end) (Homo sapiens, UniProt Q06418). Its IC50 is < 500 nM

# value of IC50, Recombinant human Tyro3 (455-end) (Homo sapiens, UniProt Q06418), item CCN1CCC(n2cc(-c3cnc(N)c(-c4nc(-c5c(Cl)cccc5Cl)no4)c3)cn2)CC1 = < 500 nM

GET /values?item= Nc1ncc(-c2cnn(C3CCNCC3)c2)cc1-c1nc(-c2c(Cl)cccc2Cl)no1 &system= Recombinant human Tyro3 (455-end) (Homo sapiens, UniProt Q06418) returns IC50: < 500 nM

Test item Nc1ncc(-c2cnn(C3CCCCC3)c2)cc1-c1ncc(-c2ccccc2)o1 ; Recombinant human Tyro3 (455-end) (Homo sapiens, UniProt Q06418); reported IC50 was 1000 to 10000 nM

Tested on Recombinant human Tyro3 (455-end) (Homo sapiens, UniProt Q06418): Nc1ncc(-c2cnn(C3CCNCC3)c2)cc1-c1nnc(-c2nc(C(F)(F)F)cs2)o1 . Observed IC50: < 500 nM

Query Nc1ncc(-c2cn[nH]c2)cc1-c1nc(-c2ccccc2)no1 on Recombinant human Tyro3 (455-end) (Homo sapiens, UniProt Q06418); IC50 returned: 1000 to 10000 nM

Measured on Recombinant human Tyro3 (455-end) (Homo sapiens, UniProt Q06418), Nc1ncc(-c2cnn(C3CCNCC3)c2)cc1-c1ncc(-c2cccnc2)o1 has a documented IC50 of < 500 nM

Assay Recombinant human Tyro3 (455-end) (Homo sapiens, UniProt Q06418), sample Nc1ncc(-c2cnn(C3CCNCC3)c2)cc1-c1nnc(C2CCCCC2)o1 , IC50 read: < 500 nM

Values compiled from patent US11034685B2.
